# credit: ChEMBL document CHEMBL5291721

What follows is a collection of AC50 values obtained with B2 bradykinin receptor (Homo sapiens, UniProt P30411).
Sequence (P30411 whole entry): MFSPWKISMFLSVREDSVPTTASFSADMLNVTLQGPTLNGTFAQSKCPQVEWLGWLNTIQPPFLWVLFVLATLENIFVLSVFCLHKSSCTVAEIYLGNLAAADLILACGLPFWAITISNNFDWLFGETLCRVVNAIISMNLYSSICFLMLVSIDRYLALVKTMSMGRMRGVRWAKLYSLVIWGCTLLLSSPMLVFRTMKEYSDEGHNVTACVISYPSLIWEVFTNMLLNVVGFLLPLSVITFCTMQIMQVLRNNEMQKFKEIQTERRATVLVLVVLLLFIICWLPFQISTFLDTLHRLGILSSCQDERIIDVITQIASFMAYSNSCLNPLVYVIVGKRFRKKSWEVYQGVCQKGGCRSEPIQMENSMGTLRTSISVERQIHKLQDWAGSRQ

{"columns": ["COMPOUND", "TARGET_OF_ASSAY", "AC50"],
 "data": [
  ["CO/N=C(\\C(=O)N[C@@H]1C(=O)N2C(C(=O)O)=C(CSc3nc(C)c(CC(=O)O)s3)CS[C@H]12)c1csc(N)n1", "B2 bradykinin receptor (Homo sapiens, UniProt P30411)", "> 30 µM"],
  ["CC(=O)Oc1cccc2c1C(=O)c1c(OC(C)=O)cc(C(=O)O)cc1C2=O", "B2 bradykinin receptor (Homo sapiens, UniProt P30411)", "28 µM"],
  ["CC(=O)SCC(Cc1ccccc1)C(=O)NCC(=O)OCc1ccccc1 (stereo not drawn)", "B2 bradykinin receptor (Homo sapiens, UniProt P30411)", "> 30 µM"],
  ["CC1NCCOC1c1ccccc1 (stereo not drawn)", "B2 bradykinin receptor (Homo sapiens, UniProt P30411)", "> 30 µM"],
  ["CN(C)CCOCC(=O)NC12CC3CC(CC(C3)C1)C2", "B2 bradykinin receptor (Homo sapiens, UniProt P30411)", "> 30 µM"],
  ["CCN(CC)CC(=O)Nc1c(C)cccc1C", "B2 bradykinin receptor (Homo sapiens, UniProt P30411)", "> 30 µM"],
  ["Nc1cc(N2CCCCC2)nc(N)[n+]1[O-]", "B2 bradykinin receptor (Homo sapiens, UniProt P30411)", "> 30 µM"],
  ["COc1cccc2c1C(=O)c1c(O)c3c(c(O)c1C2=O)C[C@@](O)(C(=O)CO)C[C@@H]3O[C@H]1C[C@H](N)[C@H](O)[C@H](C)O1", "B2 bradykinin receptor (Homo sapiens, UniProt P30411)", "> 30 µM"],
  ["Cc1cccc(Nc2ccncc2S(=O)(=O)NC(=O)NC(C)C)c1 [TORSEMIDE]", "B2 bradykinin receptor (Homo sapiens, UniProt P30411)", "> 30 µM"],
  ["CCN(CC)Cc1nccn1-c1ccc([N+](=O)[O-])cc1C(=O)c1ccccc1Cl", "B2 bradykinin receptor (Homo sapiens, UniProt P30411)", "> 30 µM"],
  ["CC(C)(N)Cc1ccccc1", "B2 bradykinin receptor (Homo sapiens, UniProt P30411)", "> 30 µM"],
  ["CCOC(=O)Nc1ccc(NCc2ccc(F)cc2)nc1N", "B2 bradykinin receptor (Homo sapiens, UniProt P30411)", "> 30 µM"],
  ["CC(C)C[C@H](NC(=O)[C@H](Cc1ccccc1)NC(=O)c1cnccn1)B(O)O", "B2 bradykinin receptor (Homo sapiens, UniProt P30411)", "> 30 µM"],
  ["CN1C2CCCC1CC(NC(=O)c1nn(C)c3ccccc13)C2 (stereo not drawn)", "B2 bradykinin receptor (Homo sapiens, UniProt P30411)", "> 30 µM"],
  ["CCCCCCCC(=O)CC[C@@H]1[C@@H](C/C=C\\CCCC(=O)O)[C@@H](O)C[C@H]1O", "B2 bradykinin receptor (Homo sapiens, UniProt P30411)", "> 30 µM"],
  ["CN(C)CCC(O)(c1ccccc1)c1ccccc1Cl (stereo not drawn)", "B2 bradykinin receptor (Homo sapiens, UniProt P30411)", "> 10 µM"],
  ["CC1=C(/C=C/C(C)=C/C=C/C(C)=C/C(=O)Oc2c(C)c(C)c3c(c2C)CCC(C)(CCCC(C)CCCC(C)CCCC(C)C)O3)C(C)(C)CCC1 (stereo not drawn)", "B2 bradykinin receptor (Homo sapiens, UniProt P30411)", "> 30 µM"],
  ["CN(Cc1ccc(C(C)(C)C)cc1)Cc1cccc2ccccc12", "B2 bradykinin receptor (Homo sapiens, UniProt P30411)", "> 10 µM"]
]}

---

Measured AC50 of individual entries
# TARGET_OF_ASSAY: 5-hydroxytryptamine receptor 2B (Homo sapiens, UniProt P41595); also: assay procedure not described here
# Sequence (P41595 whole entry): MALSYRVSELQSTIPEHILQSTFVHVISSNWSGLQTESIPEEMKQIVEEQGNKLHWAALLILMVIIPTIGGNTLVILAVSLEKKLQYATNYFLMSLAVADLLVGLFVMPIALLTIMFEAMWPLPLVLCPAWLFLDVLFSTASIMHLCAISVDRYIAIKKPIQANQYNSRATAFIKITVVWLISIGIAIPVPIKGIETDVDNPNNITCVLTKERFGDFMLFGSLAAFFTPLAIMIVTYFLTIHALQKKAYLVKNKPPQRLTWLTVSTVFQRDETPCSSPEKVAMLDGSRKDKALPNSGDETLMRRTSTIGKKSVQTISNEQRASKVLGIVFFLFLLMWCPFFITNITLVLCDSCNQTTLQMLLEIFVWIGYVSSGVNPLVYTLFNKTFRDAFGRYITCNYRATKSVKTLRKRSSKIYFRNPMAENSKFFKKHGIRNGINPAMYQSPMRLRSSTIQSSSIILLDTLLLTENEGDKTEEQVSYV
# Format: functional, cell-based
VALUE_KIND: AC50

{"columns": ["MOLECULE", "MEAS_VALUE"],
 "data": [
  ["Oc1cc(O)c2c(c1)O[C@H](c1ccc(O)c(O)c1)[C@@H](O)C2", "> 10 µM"],
  ["CCN(C(C)=O)c1cccc(-c2ccnc3c(C#N)cnn23)c1", "> 10 µM"],
  ["C=CC1=C(C(=O)O)N2C(=O)[C@@H](NC(=O)/C(=N\\O)c3csc(N)n3)[C@H]2SC1", "> 10 µM"],
  ["C=C(c1ccccc1OCc1cccc(Cl)c1)n1ccnc1", "8.5 µM"],
  ["CC(C(=O)O)c1ccc(C(=O)c2ccccc2)s1 (stereo not given)", "> 10 µM"]
]}

---

# TARGET_OF_ASSAY: Thromboxane A2 receptor (Homo sapiens, UniProt P21731); also: assay procedure not described here
# Sequence (P21731 whole entry): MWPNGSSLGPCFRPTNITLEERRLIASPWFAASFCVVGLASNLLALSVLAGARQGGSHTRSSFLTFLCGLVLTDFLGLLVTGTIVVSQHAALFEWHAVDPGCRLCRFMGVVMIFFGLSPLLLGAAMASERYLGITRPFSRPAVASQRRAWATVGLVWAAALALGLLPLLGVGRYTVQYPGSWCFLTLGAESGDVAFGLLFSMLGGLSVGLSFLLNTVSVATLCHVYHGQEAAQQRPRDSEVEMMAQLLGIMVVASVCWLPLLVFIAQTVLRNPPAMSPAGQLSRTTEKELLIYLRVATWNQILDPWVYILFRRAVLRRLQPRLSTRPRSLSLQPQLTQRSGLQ
# Assay type: functional, cell-based
VALUE_KIND: AC50

{"columns": ["COMPOUND", "MEAS_VALUE"],
 "data": [
  ["CC1(C)C[C@@H]1C(=O)N/C(=C\\CCCCSC[C@H](N)C(=O)O)C(=O)O [CILASTATIN]", "> 30 µM"],
  ["COc1cccc2c1C(=O)c1c(O)c3c(c(O)c1C2=O)C[C@@](O)(C(=O)CO)C[C@@H]3O[C@H]1C[C@H](N)[C@H](O[C@@H]2CCCCO2)[C@H](C)O1 [PIRARUBICIN]", "> 1 µM"],
  ["C[C@]12CC[C@@H]3c4ccc(OC(=O)N(CCCl)CCCl)cc4CC[C@H]3[C@@H]1CC[C@@H]2OP(=O)(O)O [ESTRAMUSTINE PHOSPHATE]", "> 30 µM"],
  ["OC[C@H]1NC[C@H](O)[C@@H](O)[C@H]1O", "> 30 µM"],
  ["CC1(C)CCC(C)(C)c2cc(NC(=O)c3ccc(C(=O)O)cc3)ccc21 [TAMIBAROTENE]", "28.7 µM"],
  ["NS(=O)(=O)c1cc2c(cc1Cl)NC(C(Cl)Cl)NS2(=O)=O (configuration not stated) [TRICHLORMETHIAZIDE]", "> 30 µM"],
  ["O=C1[C@@H]2[C@H]3CC[C@H](C3)[C@@H]2C(=O)N1C[C@@H]1CCCC[C@H]1CN1CCN(c2nsc3ccccc23)CC1 [LURASIDONE]", "> 30 µM"]
]}

---

What follows is a collection of AC50 values obtained with Histamine H3 receptor (Homo sapiens).
Sequence (Q9Y5N1 whole entry): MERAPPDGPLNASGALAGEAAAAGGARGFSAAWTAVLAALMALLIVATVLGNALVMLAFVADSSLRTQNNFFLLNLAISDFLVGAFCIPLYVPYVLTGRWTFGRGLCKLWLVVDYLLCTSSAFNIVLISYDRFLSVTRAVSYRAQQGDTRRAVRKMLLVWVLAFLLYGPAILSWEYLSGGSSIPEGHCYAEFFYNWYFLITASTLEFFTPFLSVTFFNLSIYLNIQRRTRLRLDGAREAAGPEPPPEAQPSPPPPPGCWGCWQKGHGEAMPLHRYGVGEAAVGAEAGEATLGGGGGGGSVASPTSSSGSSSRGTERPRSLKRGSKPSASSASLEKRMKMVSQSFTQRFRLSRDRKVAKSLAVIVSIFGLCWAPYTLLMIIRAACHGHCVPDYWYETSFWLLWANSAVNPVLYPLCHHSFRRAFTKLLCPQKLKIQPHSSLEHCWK
VALUE_KIND: AC50

{"columns": ["MOLECULE", "MEAS_VALUE"],
 "data": [
  ["CN(C)CCC=C1c2ccccc2CCc2ccccc21 [AMITRIPTYLINE]", "24 µM"],
  ["CCN(C(C)=O)c1cccc(-c2ccnc3c(C#N)cnn23)c1 [ZALEPLON]", "> 10 µM"],
  ["O=C(O)c1ccc2nc(-c3cc(Cl)cc(Cl)c3)oc2c1", "> 30 µM"],
  ["CN1CCCN=C1/C=C/c1cccc(O)c1 [OXANTEL]", "> 30 µM"],
  ["O=C(O)[C@H]1/C(=C/CO)O[C@@H]2CC(=O)N21 [CLAVULANIC ACID]", "> 30 µM"],
  ["NS(=O)(=O)c1ccc(N2CCCCS2(=O)=O)cc1", "> 30 µM"],
  ["CC1=C(/C=C/C(C)=C/C=C/C(C)=C/C(=O)Oc2c(C)c(C)c3c(c2C)CCC(C)(CCCC(C)CCCC(C)CCCC(C)C)O3)C(C)(C)CCC1 (stereo not drawn) [TRETINOIN TOCOFERIL]", "> 30 µM"],
  ["CCN1C(=O)NC(c2ccccc2)C1=O (stereo not drawn) [ETHOTOIN]", "> 30 µM"],
  ["CC1Cc2ccccc2N1NC(=O)c1ccc(Cl)c(S(N)(=O)=O)c1 (stereo not drawn) [INDAPAMIDE]", "> 10 µM"],
  ["C=CC1=C(C(=O)O)N2C(=O)[C@@H](NC(=O)/C(=N\\O)c3csc(N)n3)[C@H]2SC1", "> 10 µM"],
  ["CC(NC(C)(C)C)C(=O)c1cccc(Cl)c1 (stereo not drawn) [BUPROPION]", "> 10 µM"],
  ["CC1NCCOC1c1ccccc1 (stereo not drawn) [PHENMETRAZINE]", "> 10 µM"],
  ["CC[N+](CC)(CCNC(=O)C(=O)NCC[N+](CC)(CC)Cc1ccccc1Cl)Cc1ccccc1Cl [AMBENONIUM]", "21 µM"],
  ["C[C@H](Cn1cnc2c(N)ncnc21)OCP(=O)(O)O [TENOFOVIR ANHYDROUS]", "> 30 µM"],
  ["OCC(CO)N[C@H]1C[C@](O)(CO)[C@@H](O)[C@H](O)[C@H]1O [VOGLIBOSE]", "> 30 µM"],
  ["CCN(CC)Cc1nccn1-c1ccc([N+](=O)[O-])cc1C(=O)c1ccccc1Cl [NIZOFENONE]", "> 30 µM"],
  ["C[C@]12C=CC(=O)C=C1CC[C@@H]1[C@@H]2[C@@H](O)C[C@@]2(C)[C@H]1CC[C@]2(O)C(=O)CO [PREDNISOLONE]", "> 10 µM"],
  ["COc1cccc2c1C(=O)c1c(O)c3c(c(O)c1C2=O)C[C@@](O)(C(=O)CO)C[C@@H]3O[C@H]1C[C@H](N)[C@H](O)[C@H](C)O1 [DOXORUBICIN]", "> 30 µM"]
]}
